Parameter: TGI. Scope: all listed entries.
- System: SN12C renal
- assay protocol: NCI tumour cell line growth inhibition, 48 h
Where a SMILES comes first, the peptide text is derived from it.
observed property: TGI

- NC(=S)NNC(=O)CCC(=O)Nc1ccc(Cl)cc1Cl: > 100 µM
- CC(C)=CCC[C@](C)(O[C@@H]1O[C@H](CO)[C@@H](O)[C@H](O)[C@H]1O)[C@H]1CC[C@]2(C)[C@@H]1[C@H](O)C[C@@H]1[C@@]3(C)CC[C@H](O)C(C)(C)[C@@H]3[C@@H](O[C@@H]3O[C@H](CO)[C@@H](O)[C@H](O)[C@H]3O)C[C@]12C: > 100 µM
- CC(=O)c1nc2ccccc2n1CC(=O)c1ccc(Cl)cc1: > 100 µM
- CC(=O)NC(CS)C(=O)NC(CO)C(=O)NC(CO)C(=O)NC(Cc1c[nH]c2ccccc12)C(=O)N1CCCC1C(=O)NC(CO)C(=O)NC(Cc1c[nH]c2ccccc12)C(=O)NC(Cc1c[nH]cn1)C(=O)NC(CO)C(=O)NC(Cc1c[nH]c2ccccc12)C(=O)NCC(=O)NCC(=O)NC(CC(=O)O)C(=O)NC(CCC(N)=O)C(=O)NC(CCCCN)C(=O)NC(Cc1ccccc1)C(=O)NC(CCCNC(=N)N)C(=O)NC(CCCCN)C(N)=O (stereo unspecified) (Ac-CSSWPSWHSWGGDQKFRK-NH2; configuration not given here): > 25 µM
- COc1ccc2c(c1)CCCN1Cc3cc(OC)c(OC)cc3CC21 (stereo unspecified): > 100 µM
- CCOC(=O)[C@H]1Nc2ccc(Cl)cc2[C@H]2OCC[C@@H]12: > 100 µM
